experiment: In vitro metabolism rate determination, human liver microsome (HLM) assay; format: in vitro ADME; conditions: human liver microsomes, substrate 1 μM; read-out: HLM (intrinsic clearance)
EXPERIMENTAL READOUT: microsomal CLint at 1 μM

Q) For the compound CC1CN(C(=O)C2CN(c3ccc(C#N)cn3)CC2c2ccc(C#N)cn2)CC(C)C1(O)c1ccc(F)cc1 (stereo not drawn) , report microsomal CLint at 1 μM.
A) < 7 µL/min/mg

Q) Write down microsomal CLint at 1 μM measured for item `C[C@@H]1CN(C(=O)[C@@H]2CN(c3ccc(Cl)nn3)C[C@H]2c2ccc(Cl)cn2)C[C@H](C)[C@@]1(O)c1ccc(F)cc1`
A) < 7 µL/min/mg

Q) Note down microsomal CLint at 1 μM recorded for `C[C@@H]1CN(C(=O)[C@@H]2CN(c3ccc(=O)n(C)n3)C[C@H]2c2ccc(Cl)cn2)C[C@H](C)[C@@]1(O)c1ccc(Cl)cn1`
A) 20.5 µL/min/mg

Q) Fill in microsomal CLint at 1 μM for record `C[C@@H]1CN(C(=O)[C@@H]2CN(c3ccc(=O)n(C)n3)C[C@H]2c2ccc(Cl)cn2)C[C@H](C)[C@@]1(O)C1CCCCC1`
A) > 440 µL/min/mg

Q) Query microsomal CLint at 1 μM for `COc1ccc([C@@H]2CN(c3ccc(C#N)cn3)C[C@H]2C(=O)N2C[C@@H](C)[C@](O)(c3ccc(F)cc3)[C@@H](C)C2)cn1`
A) < 9 µL/min/mg

Q) Report measured microsomal CLint at 1 μM; entry is CC1CN(C(=O)C2CN(c3cncc(F)c3)CC2c2ccc(Cl)cn2)CC(C)C1(O)C1CC1 (stereo not drawn)
A) 355 µL/min/mg

---

Assign microsomal CLint at 1 μM to each entry below.
assay: In vitro metabolism rate determination, rat liver microsome (RLM) assay; format: in vitro ADME; settings: rat liver microsomes, substrate 1 μM; read-out: RLM (intrinsic clearance)
# number only, unit µL/min/mg dropped from output

Q) Note microsomal CLint at 1 μM for the compound shown: C[C@@H]1CN(C(=O)[C@@H]2CN(c3ccc(C#N)nn3)C[C@H]2c2ccc(Cl)cn2)C[C@H](C)[C@@]1(O)c1ccc(F)cc1 [Example 2]
A) 31

Q) Consider the compound CC1CN(C(=O)C2CN(c3ccc(C#N)nn3)CC2c2ccc(Cl)cn2)CC(C)C1(O)c1ccccn1 (stereo not drawn) [Example 30] and give its recorded microsomal CLint at 1 μM.
A) 69.5

Q) Return the recorded microsomal CLint at 1 μM value; entry: CC1CN(C(=O)C2CN(c3ccc(=O)n(C)n3)CC2c2ccc(Cl)cn2)CC(C)C1(O)c1ccccc1 (stereo not drawn) [Example 21]
A) 58.5

Q) Give microsomal CLint at 1 μM for the following compound: CC1CN(C(=O)C2CN(c3ccc(C#N)nn3)CC2c2ccc(F)cn2)CC(C)C1(O)c1ccccc1 (stereo not drawn) [Example 33]
A) 72

---

Hi there, I'd appreciate the recorded microsomal CLint at 1 μM for every entry that follows.
assay: In vitro metabolism rate determination, rat liver microsome (RLM) assay; type: in vitro ADME; settings: rat liver microsomes, substrate 1 μM; read-out: RLM (intrinsic clearance)
Only the number, expressed in µL/min/mg, is required.

Q) For `C[C@@H]1CN(C(=O)[C@@H]2CN(c3ccc(=O)n(C)n3)C[C@H]2c2ccc(Cl)cn2)C[C@H](C)[C@@]1(O)C1CC1` , write its microsomal CLint at 1 μM.
A) 68

Q) Fill in microsomal CLint at 1 μM for record `C[C@@H]1CN(C(=O)[C@@H]2CN(c3ccc(Cl)nn3)C[C@H]2c2ccc(F)cn2)C[C@H](C)[C@@]1(O)c1ccc(F)cc1`
A) 17
